- RUN_DESCRIPTION: Oral bio availability in Sprague-Dawley rat at 10 mg/kg
- Type: ADME, organism-based
- PROTOCOL_CONDITIONS: in vivo
QUANTITY_MEASURED: bioavailability
Number plus unit, in that order.

For `COc1ccc2c(OCC[C@@H]3NC(=O)N(C)CCCC/C=C\[C@@H]4C[C@@]4(C(=O)NS(=O)(=O)C4(C)CC4)NC3=O)cc(-c3nc(C(C)C)cs3)nc2c1Cl` , what is its reported bioavailability?
27%

----------
# Lookup of reported microsomal CLint keyed by entry
- RUN_DESCRIPTION: Clearance in rat liver S9 fraction incubated for 2 hrs
- Format: ADME, subcellular
- PROTOCOL_CONDITIONS: read-out: CLH

COc1ccc2c(OCC[C@@H]3NC(=O)N(C)CCCC/C=C\[C@@H]4C[C@@]4(C(=O)NS(=O)(=O)C4CC4)NC3=O)cc(-c3nc(C(C)C)cs3)nc2c1Cl = 8.9 µL/min/mg

# ---- query compound ----
For `COc1ccc2c(OCC[C@@H]3NC(=O)N(C)CCCC/C=C\[C@@H]4C[C@@]4(C(=O)NS(=O)(=O)C4(C)CC4)NC3=O)cc(-c3nc(C(C)C)cs3)nc2c1Cl` , what is its reported microsomal CLint?
7.6 µL/min/mg

----------
# Lookup of reported log10(IC50) keyed by entry
- RUN_DESCRIPTION: Inhibition of full length HCV 1b Con1 NS3/4A protease using HiLyte Fluor 610 peptide substrate by biochemical FRET assay
- Parameters: species or system Hepatitis C virus (isolate Con1)
Use the decimal logarithm of IC50 (nM).

Solved cases (5 shown):
C#CC1(S(=O)(=O)NC(=O)[C@@]23C[C@H]2/C=C\CCCCN(C)C(=O)N[C@@H](CCOc2cc(-c4nc(C(C)C)cs4)nc4c(Cl)c(OC)ccc24)C(=O)N3)CC1 = -0.15
COc1ccc2c(OCC[C@@H]3NC(=O)N(C)CCCC/C=C\[C@@H]4C[C@@]4(C(=O)NS(=O)(=O)N4CCOCC4)NC3=O)cc(-c3nc(C(C)C)cs3)nc2c1Cl = 2.18
COc1ccc2c(OCC[C@@H]3NC(=O)N(C)CCCC/C=C\[C@@H]4C[C@@]4(C(=O)NS(=O)(=O)C4CC4)NC3=O)cc(-c3ccccc3)nc2c1 = 1.30
COc1ccc2c(OCC[C@@H]3NC(=O)N(C)CCCC/C=C\[C@@H]4C[C@@]4(C(=O)NS(=O)(=O)C4(F)CC4)NC3=O)cc(-c3nc(C(C)C)cs3)nc2c1Cl = 0.43
COc1ccc2c(OCC[C@@H]3NC(=O)N(C)CCCC/C=C\[C@@H]4C[C@@]4(C(=O)NS(=O)(=O)C4(C)CC4)NC3=O)cc(-c3cc(C(F)(F)F)nn3C)nc2c1C = 0.00

For `C#C[C@@H]1CCCN1S(=O)(=O)NC(=O)[C@@]12C[C@H]1/C=C\CCCCN(C)C(=O)N[C@@H](CCOc1cc(-c3nc(C(C)C)cs3)nc3c(Cl)c(OC)ccc13)C(=O)N2` , what is its reported log10(IC50)?
1.53

For `COc1ccc2c(OCC[C@@H]3NC(=O)N(C)CCCC/C=C\[C@@H]4C[C@@]4(C(=O)NS(=O)(=O)C4(C)CC4)NC3=O)cc(-c3nc(C(C)C)cs3)nc2c1Cl` , what is its reported log10(IC50)?
0.23

For `CCn1cc(-c2cc(OCC[C@@H]3NC(=O)N(C)CCCC/C=C\[C@@H]4C[C@@]4(C(=O)NS(=O)(=O)C4(C)CC4)NC3=O)c3ccc(OC)c(C)c3n2)cn1` , what is its reported log10(IC50)?
0.48

----------
# Lookup of reported CC50 keyed by entry
- RUN_DESCRIPTION: Cytotoxicity against human GS4.1 cells assessed as induction of cell death
- Assay type: cell-based
Form entry: value (µM) — number only.

CCC1(S(=O)(=O)NC(=O)[C@@]23C[C@H]2/C=C\CCCCN(C)C(=O)N[C@@H](CCOc2cc(-c4nc(C(C)C)cs4)nc4c(Cl)c(OC)ccc24)C(=O)N3)CC1 = 49.3
COc1ccc2c(OCC[C@@H]3NC(=O)N(C)CCCC/C=C\[C@@H]4C[C@@]4(C(=O)NS(=O)(=O)C4(C)CC4)NC3=O)cc(-c3cc(C(F)(F)F)nn3C)nc2c1C = 34.5
C#C[C@@H]1CCCN1S(=O)(=O)NC(=O)[C@@]12C[C@H]1/C=C\CCCCN(C)C(=O)N[C@@H](CCOc1cc(-c3nc(C(C)C)cs3)nc3c(Cl)c(OC)ccc13)C(=O)N2 = 21.2

# ---- query compound ----
For `COc1ccc2c(OCC[C@@H]3NC(=O)N(C)CCCC/C=C\[C@@H]4C[C@@]4(C(=O)NS(=O)(=O)C4(F)CC4)NC3=O)cc(-c3nc(C(C)C)cs3)nc2c1Cl` , what is its reported CC50?
51.4

----------
- RUN_DESCRIPTION: Half life in Sprague-Dawley rat at 10 mg/kg, po
- Assay type: ADME, organism-based
- PROTOCOL_CONDITIONS: in vivo
QUANTITY_MEASURED: half-life (min)
Form entry: value (min) — number only.

For `COc1ccc2c(OCC[C@@H]3NC(=O)N(C)CCCC/C=C\[C@@H]4C[C@@]4(C(=O)NS(=O)(=O)C4(C)CC4)NC3=O)cc(-c3nc(C(C)C)cs3)nc2c1Cl` , what is its reported half-life?
152

----------
- RUN_DESCRIPTION: Tmax in Sprague-Dawley rat at 2 mg/kg, iv
- Type: ADME, organism-based
- PROTOCOL_CONDITIONS: in vivo
QUANTITY_MEASURED: Tmax (min)
Form entry: value (min) — number only.

For `COc1ccc2c(OCC[C@@H]3NC(=O)N(C)CCCC/C=C\[C@@H]4C[C@@]4(C(=O)NS(=O)(=O)C4(C)CC4)NC3=O)cc(-c3nc(C(C)C)cs3)nc2c1Cl` , what is its reported Tmax?
6.6

----------
- RUN_DESCRIPTION: AUCt in Sprague-Dawley rat at 10 mg/kg, po
- Format: ADME, organism-based
- PROTOCOL_CONDITIONS: in vivo
QUANTITY_MEASURED: AUC(0-t) (ng·h/mL)
Form entry: value (ng·h/mL) — number only.

For `COc1ccc2c(OCC[C@@H]3NC(=O)N(C)CCCC/C=C\[C@@H]4C[C@@]4(C(=O)NS(=O)(=O)C4(C)CC4)NC3=O)cc(-c3nc(C(C)C)cs3)nc2c1Cl` , what is its reported AUC(0-t)?
2060

----------
- RUN_DESCRIPTION: Cmax in Sprague-Dawley rat at 10 mg/kg, po
- Type: ADME, organism-based
- Set-up: dose 10 mg/kg, route oral
- PROTOCOL_CONDITIONS: in vivo
QUANTITY_MEASURED: Cmax
Number plus unit, in that order.

For `COc1ccc2c(OCC[C@@H]3NC(=O)N(C)CCCC/C=C\[C@@H]4C[C@@]4(C(=O)NS(=O)(=O)C4(C)CC4)NC3=O)cc(-c3nc(C(C)C)cs3)nc2c1Cl` , what is its reported Cmax?
798 ng/mL

----------
- RUN_DESCRIPTION: Inhibition of full length HCV 1b Con1 NS3/4A protease using HiLyte Fluor 610 peptide substrate by biochemical FRET assay
- Parameters: species or system Hepatitis C virus (isolate Con1)
QUANTITY_MEASURED: IC50 (nM)
Form entry: value (nM) — number only.

Solved cases (3 shown):
CCCn1cc(-c2cc(OCC[C@@H]3NC(=O)N(C)CCCC/C=C\[C@@H]4C[C@@]4(C(=O)NS(=O)(=O)C4(C)CC4)NC3=O)c3ccc(OC)c(C)c3n2)cn1 = 1.4
COc1ccc2c(OCC[C@@H]3NC(=O)N(C)CCCC/C=C\[C@@H]4C[C@@]4(C(=O)NS(=O)(=O)C4(C)CC4)NC3=O)cc(-c3nc(C(C)C)cs3)nc2c1F = 8
COc1ccc2c(OCC[C@@H]3NC(=O)N(C)CCCC/C=C\[C@@H]4C[C@@]4(C(=O)NS(=O)(=O)C4(C)CC4)NC3=O)cc(-c3nc(C(C)C)cs3)nc2c1C = 2.3

For `COc1ccc2c(OCC[C@@H]3NC(=O)N(C)CCCC/C=C\[C@@H]4C[C@@]4(C(=O)NS(=O)(=O)C4(C)CC4)NC3=O)cc(-n3ccc(C(C)C)n3)nc2c1C` , what is its reported IC50?
2

For `COc1ccc2c(OCC[C@@H]3NC(=O)N(C)CCCC/C=C\[C@@H]4C[C@@]4(C(=O)NS(=O)(=O)C4(C)CC4)NC3=O)cc(-n3ccc(C(C)C)n3)nc2c1Cl` , what is its reported IC50?
1.1

----------
- RUN_DESCRIPTION: Cytotoxicity against human GS4.1 cells assessed as induction of cell death
- Format: cell-based
QUANTITY_MEASURED: CC50 (µM)
Form entry: value (µM) — number only.

Solved cases (2 shown):
COc1ccc2c(OCC[C@@H]3NC(=O)N(C)CCCC/C=C\[C@@H]4C[C@@]4(C(=O)NS(=O)(=O)C4(C)CC4)NC3=O)cc(-c3nc(C(C)C)cs3)nc2c1Br = 28.3
COc1ccc2c(OCC[C@@H]3NC(=O)N(C)CCCC/C=C\[C@@H]4C[C@@]4(C(=O)NS(=O)(=O)C4(C)CC4)NC3=O)cc(-c3csc(NC(C)C)n3)nc2c1 = 37.4

For `COc1ccc2c(OCC[C@@H]3NC(=O)N(C)CCCC/C=C\[C@@H]4C[C@@]4(C(=O)NS(=O)(=O)C4(C)CC4)NC3=O)cc(-n3ccc(C(F)(F)F)n3)nc2c1Cl` , what is its reported CC50?
48.8

Origin of the recorded values: ChEMBL document CHEMBL3608234
